- target.system: T1, P1181_AMBMA (Amblyomma maculatum, UniProt G3MIX6 26-115);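 further: biolayer interferometry on an Octet system: chemokines at several doses tested against tick chemokine-binding proteins, association, equilibrium and dissociation curves fitted to derive Kd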
- T1 sequence: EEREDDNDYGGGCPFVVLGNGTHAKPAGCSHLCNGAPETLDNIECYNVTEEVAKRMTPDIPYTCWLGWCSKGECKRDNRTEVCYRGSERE
- measurement.notes: BLI
pKd: −log10 of the molar value.
Cut-off 8 on pKd, inclusive. At or above means Yes; below means No.

| binder | class.name |
| --- | --- |
| CCL14_HUMAN (ligand) TESSSRGPYHPSECCFTYTTYKIPRQRIMDYYETNSQCSKPGIVFITKRGHSVCTNPSDKWVQDYIKDMKEN | No |
| CCL3_HUMAN (ligand) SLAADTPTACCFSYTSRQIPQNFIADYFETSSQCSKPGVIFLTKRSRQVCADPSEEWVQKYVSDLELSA | Yes |
| CCL4_HUMAN (ligand) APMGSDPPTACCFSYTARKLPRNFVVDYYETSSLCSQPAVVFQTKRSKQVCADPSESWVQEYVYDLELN | No |
| CCL3L1_HUMAN (ligand) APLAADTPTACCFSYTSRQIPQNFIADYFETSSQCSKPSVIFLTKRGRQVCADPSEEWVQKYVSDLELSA | Yes |
| CCL4L1_HUMAN (ligand) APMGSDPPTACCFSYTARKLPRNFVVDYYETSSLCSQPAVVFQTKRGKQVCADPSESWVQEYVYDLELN | No |
